- TARGET_OF_ASSAY: GABA-A receptor; anion channel
- PROTOCOL_DETAILS: In vitro inhibition of [3H]- flunitrazepam binding to GABA-A benzodiazepine receptor of bovine cortical membranes
- Design: species or system Bos taurus
METRIC: log10(Ki) (log10 of the value in µM)
Answers are given as log10 of Ki in µM.

For GABA-A receptor; anion channel, provide log10(Ki) of O=C(NCc1ccc(F)cc1)C(=O)c1c[nH]c2ccccc12 please. -1.28

Please state recorded log10(Ki) (tested on GABA-A receptor; anion channel) of COc1ccc(CNC(=O)C(=O)c2c[nH]c3ccc(Cl)cc23)cc1OC -1.52

Give log10(Ki) (GABA-A receptor; anion channel) of the following molecule: O=C(NCc1ccccc1)C(=O)c1c[nH]c2ccc([N+](=O)[O-])cc12 -0.93

Test system GABA-A receptor; anion channel; read-out log10(Ki); what value for COc1cc(CNC(=O)C(=O)c2c[nH]c3ccccc23)ccc1O ? -0.85

Request - read-out log10(Ki) | tested on GABA-A receptor; anion channel | molecule COc1cccc(CNC(=O)C(=O)c2c[nH]c3ccccc23)c1 -0.54

What measured log10(Ki) is associated with COc1cc(CNC(=O)C(=O)c2c[nH]c3ccc([N+](=O)[O-])cc23)ccc1O on GABA-A receptor; anion channel? -1.89

Lab note: need log10(Ki) with GABA-A receptor; anion channel for entry O=C(Nc1ccc(O)cc1)C(=O)c1c[nH]c2ccc([N+](=O)[O-])cc12 , please look it up. 0.26

Tell me reported log10(Ki) for COc1cc(CNC(=O)C(=O)c2c[nH]c3ccc(Cl)cc23)ccc1O , tested with GABA-A receptor; anion channel. -1.57

I'm curious: which log10(Ki) was measured for O=C(NCc1ccc(O)c(O)c1)C(=O)c1c[nH]c2ccc(Cl)cc12 tested on GABA-A receptor; anion channel? -0.74

Checklist item: log10(Ki) tested on GABA-A receptor; anion channel, entry COc1ccc(CNC(=O)C(=O)c2c[nH]c3ccccc23)cc1OC , value? -1.03

Request: log10(Ki), test system GABA-A receptor; anion channel, entry O=C(NCc1cccc(O)c1)C(=O)c1c[nH]c2ccc(Cl)cc12 -0.24

What log10(Ki) appears in the records for this molecule with GABA-A receptor; anion channel? O=C(NCc1ccccc1)C(=O)c1c[nH]c2ccc(Cl)cc12 -0.31

Report log10(Ki) for COc1ccc(CNC(=O)C(=O)c2c[nH]c3ccc(Cl)cc23)cc1 tested on GABA-A receptor; anion channel. -0.97

Value wanted: log10(Ki) (GABA-A receptor; anion channel) of entry COc1ccc(CNC(=O)C(=O)c2c[nH]c3ccccc23)cc1 -0.79

So what log10(Ki) did Cn1cc(C(=O)C(=O)NCc2ccc(Cl)cc2)c2ccccc21 get with GABA-A receptor; anion channel? 0.00

What value of log10(Ki) on GABA-A receptor; anion channel does O=C(NCc1ccc(O)c(O)c1)C(=O)c1c[nH]c2ccc([N+](=O)[O-])cc12 have? -1.32

Notebook entry, GABA-A receptor; anion channel assay: log10(Ki) of COc1ccc(CNC(=O)C(=O)c2c[nH]c3ccc([N+](=O)[O-])cc23)cc1OC = ? -1.96

Form: Entry = O=C(NCc1ccc(O)c(O)c1)C(=O)c1c[nH]c2ccccc12 | System = GABA-A receptor; anion channel | log10(Ki) = ____ -0.46

Param readout = log10(Ki); param system = GABA-A receptor; anion channel; param query = O=C(NCc1cccc(O)c1)C(=O)c1c[nH]c2ccc([N+](=O)[O-])cc12 ; response: value -1.19

Give GABA-A receptor; anion channel log10(Ki) for O=C(NCCCc1ccccc1)C(=O)c1c[nH]c2ccccc12 0.10

GABA-A receptor; anion channel / log10(Ki) / O=C(NCc1ccc(O)cc1)C(=O)c1c[nH]c2ccc([N+](=O)[O-])cc12 : value? -1.92

Item O=C(NCc1ccccc1)C(=O)c1c[nH]c2ccccc12 with GABA-A receptor; anion channel - log10(Ki)? -0.92

The values you see were collected from ChEMBL document CHEMBL1129605.
